compounds and their reported TGI
Tested on: SK-MEL-5 melanoma
Test: NCI tumour cell line growth inhibition, 48 h
Where a SMILES comes first, the peptide text is derived from it. [ ]: non-standard residue; d: D form. The star is where a group is joined. ξ: configuration not given here. Propanoyl(3-(4-MeO-Ph)) = COc1ccc(CCC(=O)*)cc1; Thr(3ξ) = CC(O)[C@H](N)C(=O)O; dNMeL = CN[C@H](CC(C)C)C(=O)O; ξLac = CC(O)C(=O)O
measured.quantity: TGI

[[record]]
compound = "COC(=O)[C@@H](NC(=O)[C@@H](CC(C)C)N(C)C(=O)[C@@H]1CCCN1C(=O)C(C)O)C(C)OC(=O)CCc1ccc(OC)cc1 (some centres undefined) (H-[ξLac]P[dNMeL][Thr(3ξ)](Propanoyl(3-(4-MeO-Ph)))-OMe)"
assayed_target = "SK-MEL-5 melanoma"
measured_quantity = "TGI"
measured = "> 100 µM"

[[record]]
compound = "Cc1ccc(S(=O)(=O)C2c3nc4ccccc4cc3-c3nc4ccccc4nc32)cc1 (centres undefined)"
assayed_target = "SK-MEL-5 melanoma"
measured_quantity = "TGI"
measured = "> 100 µM"

[[record]]
compound = "c1ccc(Nn2c(CCCCCCCCc3nnc(COc4ccccc4)n3Nc3ccccc3)nnc2COc2ccccc2)cc1"
assayed_target = "SK-MEL-5 melanoma"
measured_quantity = "TGI"
measured = "> 300 µM"

[[record]]
compound = "COc1ccc(-c2nn(-c3cccc(Cl)c3)cc2-c2c(C#N)c(=O)n3[nH]c(-c4ccc(C)cc4)nc3c2C#N)cc1"
assayed_target = "SK-MEL-5 melanoma"
measured_quantity = "TGI"
measured = "14 µM"


====

Known GI50 of a selection of compounds
Test system: HL-60(TB) leukemia
Experiment: NCI tumour cell line growth inhibition, 48 h
measured.quantity: GI50

[[record]]
compound = "COc1ccc(-c2nn(-c3cccc(Cl)c3)cc2-c2c(C#N)c(=O)n3[nH]c(-c4ccc(C)cc4)nc3c2C#N)cc1"
assayed_target = "HL-60(TB) leukemia"
measured = "8.33 µM"

[[record]]
compound = "COc1ccc2nc3cc([N+](=O)[O-])ccc3c(NCCCN(CCO)CCO)c2c1"
assayed_target = "HL-60(TB) leukemia"
measured = "2.56 µM"

[[record]]
compound = "CC(C)(c1ccc(Oc2ccc(C#N)c(C#N)c2)cc1)c1ccc(Oc2ccc(C#N)c(C#N)c2)cc1"
assayed_target = "HL-60(TB) leukemia"
measured = "> 100 µM"

[[record]]
compound = "O=CC(Br)C(Br)c1ccccc1 (stereo not given)"
assayed_target = "HL-60(TB) leukemia"
measured = "0.462 µM"

[[record]]
compound = "Nc1nc2ccc3[nH]ncc3c2c2c1CCCC2"
assayed_target = "HL-60(TB) leukemia"
measured = "2.31 µM"


====

Recorded measurements of TGI, one per entry
System: OVCAR-8 ovarian
Test: NCI tumour cell line growth inhibition, 48 h
measured.quantity: TGI (µM)

[[record]]
molecule = "NC(=O)C[C@H](NC(=O)C1(NC(=O)[C@H](Cc2ccc(CP(=O)(O)O)cc2)NC(=O)C(=O)O)CCCCC1)C(=O)NCCCc1cccc2ccccc12"
bound_sign = ">"
measured = 10

[[record]]
molecule = "N#Cc1ccc(C2C3=C(CCCC3=O)OC3=C2C(=O)c2ccccc2C3=O)cc1 (stereo not given)"
bound_sign = "="
measured = 4.79

[[record]]
molecule = "CCOC(=O)Cn1nnc2cc(Nc3nc4ccccc4nc3C(=O)OCC)ccc21"
bound_sign = ">"
measured = 100

[[record]]
molecule = "O=C1c2ccccc2-c2nnc(-c3ccc(Cl)cc3)cc21"
bound_sign = ">"
measured = 10

[[record]]
molecule = "CSc1n(Cc2ccc3ccccc3c2)c(C)c[n+]1Cc1ccc2ccccc2c1"
bound_sign = "="
measured = 1.6

[[record]]
molecule = "CC(=O)OCc1ccc(O)c(C=O)c1"
bound_sign = ">"
measured = 100

[[record]]
molecule = "O=C(NCCCCCCNC(=O)n1cc(F)c(=O)[nH]c1=O)NCCCOCCOCCOCCOCCOCCOCCOCCOCCOCCOCCOCCOCCOCCOCCOCCOCCOCCOCCOCCOCCOCCCNC(=O)C(O)C(O)C(OC1OC(CO)C(O)C(O)C1O)C(O)CO (stereo not given)"
bound_sign = ">"
measured = 100

[[record]]
molecule = "CC1(C)OCC(COC(=O)NCn2cc(-c3ccccc3)nn2)O1 (stereo not given)"
bound_sign = ">"
measured = 100

[[record]]
molecule = "Fc1cccc(CSc2ncnc3c2ncn3C2CCCS2)c1 (stereo not given)"
bound_sign = "="
measured = 75.7

[[record]]
molecule = "COC(=O)c1c(O)ccc2c1c1c(n2Cc2ccccn2)C(=O)c2ccccc2C1=O"
bound_sign = ">"
measured = 100

[[record]]
molecule = "Cn1c(/C=C(\\C#N)c2cccc(C(F)(F)F)c2)nc2c(N3CCOCC3)nc(Cl)nc21"
bound_sign = "="
measured = 2.16

[[record]]
molecule = "O=CC(Br)C(Br)c1ccccc1 (stereo not given)"
bound_sign = "="
measured = 10.2

[[record]]
molecule = "O=C(O)C1C(=O)Oc2c(cccc2[N+](=O)[O-])C1O (stereo not given)"
bound_sign = ">"
measured = 100

[[record]]
molecule = "CN1CCN(C(=O)c2c(NC(=O)NS(=O)(=O)c3ccccc3)sc3c2CCCCC3)CC1"
bound_sign = ">"
measured = 100

[[record]]
molecule = "COc1cccc2c1-c1c(OC)cccc1SS2"
bound_sign = "="
measured = 72.6

[[record]]
molecule = "COc1cc(/C=c2/c3ccccc3n3c2cc(-c2ccccc2)[n+]3C)cc(OC)c1OC"
bound_sign = "="
measured = 12.9

[[record]]
molecule = "Clc1cc(OCC23CC4CC(CC(C4)C2)C3)nc(OCC23CC4CC(CC(C4)C2)C3)n1"
bound_sign = ">"
measured = 100

[[record]]
molecule = "CCCCCC(O)(CCCCC)CCCCCCCCC1=C(O)c2ccccc2C(=O)C1=O"
bound_sign = "="
measured = 33

[[record]]
molecule = "CN1CCN(/C(N)=C(\\C#N)C(=O)Nc2ccccc2)CC1"
bound_sign = ">"
measured = 100

[[record]]
molecule = "CCCCNC(=S)c1ccc(OC(=O)Nc2ccc(Cl)cc2)cc1"
bound_sign = ">"
measured = 100


====

Tested on: U251 CNS
Assay: NCI tumour cell line growth inhibition, 48 h
measured.quantity: TGI

[[record]]
molecule = "N/C(=N\\N=C\\c1cc2c(cc1Cl)OCO2)NO"
measured = "> 100 µM"

[[record]]
molecule = "Cc1ccc(-c2cc(=O)c3cc(C)c(C)c(C(=O)O)c3o2)cc1"
measured = "> 100 µM"

[[record]]
molecule = "Cc1cc2c(cc1-c1cc3c(cc1C)C(C(C)C)=C(O)C(=O)/C3=C\\Nc1c(C)n(C)n(-c3ccccc3)c1=O)/C(=C/Nc1c(C)n(C)n(-c3ccccc3)c1=O)C(=O)C(O)=C2C(C)C"
measured = "> 100 µM"

[[record]]
molecule = "CCCCC1(N=[N+]=[N-])C(=O)C2C=CC=C3c4ccccc4N(C1=O)C32 (stereo unspecified)"
measured = "> 31.6 µM"

[[record]]
molecule = "O=C(NCCN1CCC(O)CC1)c1cc2c(o1)C(=O)c1ccccc1C2=O"
measured = "1.14 µM"

[[record]]
molecule = "CC(=O)OCc1ccc(O)c(C=O)c1"
measured = "> 100 µM"

[[record]]
molecule = "c1ccc(Nn2c(CCCCCCCCc3nnc(COc4ccccc4)n3Nc3ccccc3)nnc2COc2ccccc2)cc1"
measured = "> 300 µM"

[[record]]
molecule = "CC1CC(=O)Nc2ccc(N=NN(C)C)cc2N1C=O (stereo unspecified)"
measured = "> 100 µM"

[[record]]
molecule = "COc1ccc(S(=O)(=O)Nc2ccc(-c3csc(N4C(=O)/C(=C/c5ccccc5)N=C4c4ccccc4)n3)cc2)cc1Cl"
measured = "78 µM"

[[record]]
molecule = "COC(=O)C(Cc1ccccc1)NC(=O)c1ccc(CNC(=S)NCc2cccc(CNC(=S)NCc3ccccc3)c2)cc1 (stereo unspecified)"
measured = "> 62.5 µM"

[[record]]
molecule = "COc1ccc(NCc2cnc3nc(N)nc(N)c3c2C)cc1"
measured = "> 100 µM"

[[record]]
molecule = "CCCCN=C(NC#N)N(Cc1ccccc1)Cc1ccccc1"
measured = "81.3 µM"

[[record]]
molecule = "C=CCCC(On1c(-c2ccc(Cl)cc2)csc1=S)c1ccccc1 (stereo unspecified)"
measured = "> 100 µM"

[[record]]
molecule = "COc1ccc(-c2nnc(CCCCCCCCc3nnc(-c4ccc(OC)cc4)n3N)n2N)cc1"
measured = "> 100 µM"

[[record]]
molecule = "O=c1cc(-c2ccccc2)nc(/C=C(\\O)c2ccncc2)n1-c1ccccc1"
measured = "> 100 µM"

[[record]]
molecule = "Cc1oncc1NC1=CC(=O)C(=O)c2ccccc21"
measured = "17.3 µM"

[[record]]
molecule = "CCC/C(Cl)=N\\OC(=O)Nc1ccc(F)c([N+](=O)[O-])c1"
measured = "37.3 µM"

[[record]]
molecule = "COc1ccc2c(c1)CC1(O)COc3cc(OC)ccc3C1O2 (stereo unspecified)"
measured = "> 100 µM"

[[record]]
molecule = "O=C(/C=C/c1cccc([N+](=O)[O-])c1)c1ccc(O)c(CN2CCN(c3cc4c(cc3F)c(=O)c(C(=O)O)cn4C3CC3)CC2)c1"
measured = "2.62 µM"

[[record]]
molecule = "CC(C)(C)c1cc(/C=C/C(=O)CC(=O)/C=C/c2cc(C(C)(C)C)c(O)c(C(C)(C)C)c2)cc(C(C)(C)C)c1O"
measured = "> 50 µM"

[[record]]
molecule = "CC1(C)OCC(COC(=O)NCn2cc(-c3ccccc3)nn2)O1 (stereo unspecified)"
measured = "> 100 µM"

